- EXPERIMENTAL TARGET: Bovine spleen cathepsin B (Bos taurus, UniProt P07688)
- Construct: Bovine spleen cathepsin B (Sigma-Aldrich); purchased Sigma-Aldrich; host or cells: bovine spleen (tissue-derived)
- Format: biochemical
- CONDITION SET: HPLC analysis
READOUT LABEL: Products released upon treatment with cathepsin B

COc1ccc(/C=C\c2cc(OC)c(OC)c(OC)c2)cc1OC(=O)OCc1ccc(NC(=O)[C@H](CCCNC(N)=O)NC(=O)[C@@H](NC(=O)OCc2ccccc2)C(C)C)cc1; VIIIb
